- Experimental system: MNK2a (Homo sapiens, UniProt Q9HBH9)
- Sequence (Q9HBH9 whole entry): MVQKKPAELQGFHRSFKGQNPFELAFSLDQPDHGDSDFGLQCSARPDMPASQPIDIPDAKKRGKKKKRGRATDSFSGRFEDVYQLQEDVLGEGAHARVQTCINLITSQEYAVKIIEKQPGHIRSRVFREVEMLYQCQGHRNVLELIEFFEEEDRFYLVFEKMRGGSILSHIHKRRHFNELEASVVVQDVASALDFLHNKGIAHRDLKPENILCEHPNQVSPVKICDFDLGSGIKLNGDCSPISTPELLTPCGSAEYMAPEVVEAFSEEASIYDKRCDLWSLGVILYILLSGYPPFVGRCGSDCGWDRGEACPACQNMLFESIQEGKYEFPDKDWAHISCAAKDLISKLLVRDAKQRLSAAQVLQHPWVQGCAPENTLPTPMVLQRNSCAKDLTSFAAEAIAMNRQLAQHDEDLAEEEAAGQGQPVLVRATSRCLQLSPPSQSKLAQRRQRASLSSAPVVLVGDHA
- Assay text: MNK2a in vitro kinase assay (assay 1), ADP-Glo
- Assay setup: preactivated GST-MNK2a, 20 μM ATP, read-out: MNK2 IC50
- Experimental: A. MNK2a In Vitro Kinase Assay (Assay 1) ASSAY SETUP: The inhibition of kinase activity of MNK2a was assessed using preactivated GST-MNK2a. The white, 384-well OptiPlate F plates were purchased from Perkin Elmer. […] The plates are sealed and after an incubation period of 30 min, the luminescence signal is measured in an Envision reader to determine the amount of produced ADP. […] IC50 values based on dose response curves are calculated with the AssayExplorer software.
pIC50: −log10 of the molar value.
Assay metric: pIC50

Examples with their reported pIC50 follow.
CS(C)(=O)=Nc1cc(F)c2c(Nc3ccc(F)cc3O[C@H]3CC[C@@](C)(O)CC3)ncnc2c1    8.40
Cc1cc(N=S(C)(=O)C(C)(C)C)cc2ncnc(Nc3ccc(F)cc3O[C@H]3CCOC3)c12 (stereo partly drawn)    8.22
Cc1cc(N=S(C)(=O)C2CC2)cc2ncnc(Nc3ccc(F)cc3O[C@H]3CCOC3)c12 (stereo partly drawn)    8.15

[a] Cc1cc(N=S(C)(C)=O)cc2ncnc(Nc3ccc(F)cc3O[C@@H]3CCCN(CC(F)(F)F)C3)c12
[b] CCc1cc(N=S(C)(C)=O)cc2ncnc(Nc3ccc(F)cc3O[C@H]3CCOC3)c12
Q: Smaller pIC50 value? Options are a and b Your choice should be expressed through its label.
Ans: b

[P] CCS(C)(=O)=Nc1cc(C)c2c(Nc3ccc(F)cc3O[C@@H]3CO[C@H]4[C@@H]3OC[C@H]4OC)ncnc2c1 (stereo partly drawn)
[Q] Cc1cc(N=S2(=O)CCC(O)CC2)cc2ncnc(Nc3ccc(F)cc3O[C@@H]3CO[C@@H]4CCO[C@@H]43)c12 (stereo partly drawn)
[R] CNC(=O)N1CCS(=O)(=Nc2cc(C)c3c(Nc4ccc(F)cc4O[C@H]4CC[C@H](OC)CC4)ncnc3c2)CC1
[S] Cc1cc(N=S(C)(C)=O)cc2ncnc(Nc3ccc(F)cc3O[C@@H]3CO[C@@H]4CCO[C@@H]43)c12 [Example 2.121]
[T] CS(C)(=O)=Nc1cc(F)c2c(Nc3cccnc3O[C@@H]3CCCN(CCO)C3)ncnc2c1
Q: Let's sort these by pIC50, smallest first. Go ahead? Form field (ranking): labels in requested order.
Ans: T, R, S, P, Q
(T: 7.51, R: 8.15, S: 8.40, P: 8.70, Q: 9.00)

[I] Cc1cc(N=S(C)(=O)C(C)C)cc2ncnc(Nc3ccc(F)cc3O[C@@H]3CO[C@@H]4CCO[C@@H]43)c12 (stereo partly drawn)
[II] Cc1cc(N=S(C)(C)=O)cc2ncnc(Nc3ccc(C#N)cc3OC3CCOCC3)c12
Q: Which value of pIC50 is numerically greater: that of I or that of II ? Your choice should be expressed through its label.
Ans: I

[1] Cc1cc(N=S(C)(C)=O)cc2ncnc(Nc3ccc(F)cc3OC3COCOC3)c12
[2] Cc1cc(N=S(C)(=O)c2ccncc2)cc2ncnc(Nc3ccc(F)cc3O[C@@H]3CO[C@@H]4CCO[C@@H]43)c12 (stereo partly drawn)
Q: Smaller pIC50 value? Options are 1 and 2 Your choice should be expressed through its label.
Ans: 2
